Tested on: Fibroblast
Assay: Incucyte cell viability with human fibroblast; further: unitless GR value; below 1 slowed growth and below 0 cell loss
Format: toxicity, cell-based
Conditions: 12 h, 10 µM, compound concentration 10 uM, replicate number 2
Response field label takes y when Growth Rate is strictly below 0.3 and n in all other cases.

INSERT INTO results (molecule, group_label) VALUES
  ('CS(=O)(=O)O.C[C@H](NC(=O)c1cnc2n1[C@](C)(Cc1ccc(C#N)cc1)C(=O)N2c1cc(Cl)c(F)c(Cl)c1)C(=O)NC1(c2ccccn2)CC1', 'n'),
  ('CC(C)S(=O)(=O)c1ccccc1Nc1nc(N[C@@H]2CCCN(CCCCCCCNC(=O)COc3cccc4c3C(=O)N(C3CCC(=O)N(C)C3=O)C4=O)C2)ncc1Cl (some centres not stated)', 'y'),
  ('CN1CCN(c2ccc(C(=O)Nc3n[nH]c4ccc(Cc5cc(F)cc(F)c5)cc34)c(NC3CCOCC3)c2)CC1 [ENTRECTINIB]', 'y');

query: Please determine if C[C@@H]1C[C@H](N)C[C@H](c2ccncc2NC(=O)c2ccc(F)c(-c3c(F)cccc3F)n2)C1 [LGH-447] is below 0.3 in terms of Growth Rate.
result: n

query: Please determine if `CC(=O)Nc1nc(C)c(S(=O)(=O)Nc2ccc(C(O)(C(F)(F)F)C(F)(F)F)cc2)s1` is below 0.3 in terms of Growth Rate.
result: n

query: Please determine if `C[C@@H](NC(=O)Cc1ccc(C2CC2)cc1)c1ccc(OCC(F)(F)F)cn1` is below 0.3 in terms of Growth Rate.
result: n

query: Please determine if CNC(=O)c1ccc(C)c(-n2c(C)cc(OCc3ccc(F)cc3F)c(Br)c2=O)c1 [PH-797804] is below 0.3 in terms of Growth Rate.
result: n

query: Please determine if `COc1cc([N+](=O)[O-])ccc1NC(=O)c1ccccc1O` is below 0.3 in terms of Growth Rate.
result: n

query: Please determine if CCn1c(-c2nonc2N)nc2c(C#CC(C)(C)O)ncc(OCC3CCCNC3)c21 (configuration not stated) is below 0.3 in terms of Growth Rate.
result: n

query: Please determine if CNCc1ccc(-c2cc(-c3nc(-c4ccc(S(=O)(=O)C(C)C)cc4)cnc3N)on2)cc1 [BERZOSERTIB] is below 0.3 in terms of Growth Rate.
result: y

###

Tested on: HEK-293T
Assay: Incucyte cell viability with HEK293T; further: unitless GR value; below 1 slowed growth and below 0 cell loss
Type: toxicity, cell-based
Settings: human, 18 h, 10 µM, compound concentration 10 uM, replicate number 1
attribute.measured: Growth Rate
In your answer, state the number alone without any accompanying words.

query: Would you please give the reported Growth Rate of `NC(=O)c1cc2c(-c3ccc(C(=O)NCc4ccnc(Cl)c4)s3)cccc2s1` with HEK-293T?
result: -0.29

query: Would you please give the reported Growth Rate of `COc1cc(-c2nn([C@H]3CC[C@H](N4CCN(C(C)=O)CC4)CC3)c3ncnc(N)c23)ccc1NC(=O)c1cc2ccccc2n1C` with HEK-293T?
result: 0.38

query: Would you please give the reported Growth Rate of `CNc1nc(-c2ccc3c(N)n[nH]c3c2)cc(N2C[C@@H](C(=O)NC3CCCCC3)CC[C@H]2C)n1` with HEK-293T?
result: 0.8

query: Would you please give the reported Growth Rate of `CC(C)n1cc(-c2ccc(N3CCN(C)CC3)c(NC(=O)c3ccc(-c4ccncc4)o3)c2)cn1` with HEK-293T?
result: -0.19

query: Would you please give the reported Growth Rate of `O=C(Nc1ccccc1Cl)c1cnc2ccc(C3CCNCC3)cn12.O=C(O)C(=O)O` with HEK-293T?
result: -0.53

query: Would you please give the reported Growth Rate of `CCC(=O)N[C@H]1CC[C@@H](C(=O)N(C)c2ccc(-c3nc4ccccc4o3)cc2)C1` with HEK-293T?
result: 0.31

query: Would you please give the reported Growth Rate of `CC[C@H](CC(=O)O)n1c(=O)c2ncccc2n(Cc2cn(C)c3cc(C)cc(C)c23)c1=O` with HEK-293T?
result: 0.94

query: Would you please give the reported Growth Rate of CN(C)c1cc2c(Nc3ccc4c(cnn4Cc4ccccc4)c3)ncnc2cn1 [GW282974X] with HEK-293T?
result: 0.8

query: Would you please give the reported Growth Rate of `Nc1ccc(S(=O)(=O)Nc2ccnn2-c2ccccc2)cc1` with HEK-293T?
result: 0.44

query: Would you please give the reported Growth Rate of `Cc1nc2c([nH]1)c(=O)n(C)c(=O)n2Cc1ccco1` with HEK-293T?
result: 0.7

query: Would you please give the reported Growth Rate of CC(=O)c1c(C)c2cnc(Nc3ccc(N4CCN(CCCCNC(=O)COc5cccc6c5C(=O)N(C5CCC(=O)NC5=O)C6=O)CC4)cn3)nc2n(C2CCCC2)c1=O (stereo not drawn) with HEK-293T?
result: 0.85

query: Would you please give the reported Growth Rate of `CCCCNc1ncc2c(-c3ccc(CN4CCN(C)CC4)cc3)cn([C@H]3CC[C@H](O)CC3)c2n1` with HEK-293T?
result: -0.43

query: Would you please give the reported Growth Rate of `Cn1cncc1-c1cn(-c2cccc(C(=O)Nc3cccc(C(F)(F)F)c3)c2)nn1` with HEK-293T?
result: 0.06

query: Would you please give the reported Growth Rate of `CC(=O)N(CCN(C)C)c1ccc(N/C(=C2\C(=O)Nc3cc(Cl)ccc32)c2ccccc2)cn1` with HEK-293T?
result: -0.45

query: Would you please give the reported Growth Rate of `Fc1cccc(-n2cnc3c(NCc4nc5ccc(F)c(F)c5[nH]4)nc(N4CCOCC4)nc32)c1` with HEK-293T?
result: -0.28

query: Would you please give the reported Growth Rate of `CCn1c(=O)c2c(C)c(C(=O)N3CCC(O)CC3)sc2n(CCC(F)(F)F)c1=O` with HEK-293T?
result: 0.74

query: Would you please give the reported Growth Rate of `CCN(CC)C/C=C/C(=O)Nc1cc2c(Nc3ccc(F)c(Cl)c3)ncnc2cc1OCC1CC1` with HEK-293T?
result: -0.32

query: Would you please give the reported Growth Rate of `CCNCCNC(=O)c1c(C)[nH]c(/C=C2\C(=O)Nc3ccc(F)cc32)c1C` with HEK-293T?
result: -0.32

###

Parameter Growth Rate: see the listing below.
Test system: U2OS
Assay: Incucyte cell viability with U2OS; further: unitless GR value; below 1 slowed growth and below 0 cell loss
Assay type: toxicity, cell-based
Conditions: human, 0 h, 10 µM, compound concentration 10 uM, replicate number 2

Record excerpt, results attached:
INSERT INTO assay_data (compound, meas_value) VALUES
  ('O=C1NC(c2cccc([N+](=O)[O-])c2)=CCN1c1ccccc1O', 1),
  ('Cc1cc(Cn2c(N3CC4(CNC4)C3)nc3cc(Cl)cc(N4CCN(C)CC4)c32)cc(C)c1F', -0.61),
  ('CO[C@H]1C[C@@H]2CC[C@@H](C)[C@@](O)(O2)C(=O)C(=O)N2CCCC[C@H]2C(=O)O[C@H]([C@H](C)C[C@@H]2CC[C@@H](O)[C@H](OC)C2)CC(=O)[C@H](C)/C=C(\C)[C@@H](O)[C@@H](OC)C(=O)[C@H](C)C[C@H](C)/C=C/C=C/C=C/1C', 0.94),
  ('Cc1c(CN2CCC3(CC2)CN(c2ncnc4sc(CC(F)(F)F)cc24)C3)ccc2c1cc(C#N)n2CC(N)=O', 0.3),
  ('OC(CN1CCC(Cc2ccc(F)cc2)CC1)c1ccc(Cl)cc1 (configuration not stated)', -0.72),
  ('COC1(C#Cc2ccc(Cl)c(-c3ncc4c(n3)-c3sc(NC(C)=O)nc3CC4)c2)CCN(C)CC1', 0.98);

Now for the compound whose Growth Rate we want.
query: Give Growth Rate for the following compound: `Cc1ccc(-c2c(C(=O)CF)n(CCCO)c3ncnc(N)c23)cc1`
result: -0.79

###

System: HEK-293T
Test: Incucyte cell viability with HEK293T; further: unitless GR value; below 1 slowed growth and below 0 cell loss
Type: toxicity, cell-based
Details: human, 18 h, 10 µM, compound concentration 10 uM, replicate number 1
Response field label takes Satisfied when Growth Rate is strictly below -0.3 and Not satisfied in all other cases.

# example entries with known answers
INSERT INTO assay_data (compound, target_or_system, group_label) VALUES
  ('O=C(Nc1c[nH]nc1-c1nc2cc(CN3CCOCC3)ccc2[nH]1)NC1CC1', 'HEK-293T', 'Satisfied'),
  ('COCCN1CCN(CCn2ccc(Nc3ncc4c(n3)-c3c(nn(C)c3-c3ccccc3)C[C@H]4C)n2)CC1', 'HEK-293T', 'Not satisfied'),
  ('Cc1ccc2c(N)c(C(=O)NC3CCc4cc(N5CC6CCC(C5)N6)ccc4C3)sc2n1.O=CO (centres undefined)', 'HEK-293T', 'Satisfied'),
  ('Oc1cccc(Nc2ccnc3[nH]c4ccccc4c23)c1', 'HEK-293T', 'Satisfied'),
  ('O=C(NCCN1CCOCC1)c1ccc2nn(CCOc3ccc(Cl)cc3)cc2c1', 'HEK-293T', 'Not satisfied');

--- query ---
query: Please determine if `CCn1ccc(Nc2ncc3c(n2)-c2c(nn(C)c2-c2ccc(-c4cnn(C)c4)cc2Cl)CC3)n1` is below -0.3 in terms of Growth Rate.
result: Not satisfied
